STUDY_TARGET: T1, RSV postfusion F (postF), subtype B (respiratory syncytial virus subtype B)
T1 construct: also called Postfusion subtype B
T1 sequence (P13843 26-109, chain 1 of 2): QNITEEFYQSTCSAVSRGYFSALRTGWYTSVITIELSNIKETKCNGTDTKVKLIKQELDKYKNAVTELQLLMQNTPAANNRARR
T1 sequence (P13843 147-513, chain 2 of 2): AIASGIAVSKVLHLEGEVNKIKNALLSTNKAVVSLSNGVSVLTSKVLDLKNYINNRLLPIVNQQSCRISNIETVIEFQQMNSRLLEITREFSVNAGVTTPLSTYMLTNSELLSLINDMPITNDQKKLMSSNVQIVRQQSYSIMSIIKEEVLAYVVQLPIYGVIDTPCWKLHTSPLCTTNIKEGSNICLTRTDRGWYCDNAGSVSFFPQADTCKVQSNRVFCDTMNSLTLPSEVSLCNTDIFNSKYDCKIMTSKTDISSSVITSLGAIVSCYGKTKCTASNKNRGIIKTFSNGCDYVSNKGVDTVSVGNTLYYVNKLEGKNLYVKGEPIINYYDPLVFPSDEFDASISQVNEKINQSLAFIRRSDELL
PROTOCOL_DESCRIPTION: BLI, IgG
ENDPOINT_LABEL: Kd
Report as: number unit

Answered examples (4):
ADI-22780 (antibody, V domains shown, full-length IgG) VH: EVQLVESGPTLVKPTQTLTLTCTFSGFSLSTSGVGVGWIRQPPGKALEWLALIYWDDDKRYSPSLKSRLTITKDTSKNQVVLTMTNMDPVDTATYYCAHRGRQYSYGYYYFDYWGQGTLVTVSS VL: QSVLIQPASVSGSPGQSITISCTGTSSDVGGYNFVSWYQQHPGKAPKLMIYDVSNRPSGVSNRFSGSKSGNTASLTISGLQAEDEADYYCSSYTSSTLDVFGTGTKVTVL: 0.6 nM
ADI-14339 (antibody, V domains shown, full-length IgG; also called Ab 7) VH: QVQLVESGGGVLQPGRSLRLPCEASGFTFNKYAMHWVRQAPGKGLEWVAAVSYDGGNKFYAESVKGRFTISRDNSKNTLYLQMNSLKPEDTAVYYCARDRWELLHGLDYWGLGTLVTVSS VL: SYELTQPPSVSVSPGQTARITCSGEALAKQYAYWYQQKPGQAPVLVIYKDNERPSGISERFSGSSSGTTVTLTISGVQAEDEADYYCQSADSSGTYVFGTGTKVTVL: 0.376 nM
ADI-22777 (antibody, V domains shown, full-length IgG) VH: QVQLVQSGAEVKRPGASVKVSCKASEYTFNFHDINWVRQAPGQGLEWMGWMNPKSGNTGYAQKFQGRVTMTRDTSKNTAYLELSSLRSEDTAVYYCARGYGTSWSSDSWWGQGTLVTVSS VL: SYELTQLPSVSVSPGQTARITCSGDALSKQFVYWYQQKPGLAPMLVIYKDTNRPSWIPERFSGSGSGTTATLTISEVQAEDEADYYCQSVDNSGTYGWVFGGGTKVTVL: 0.224 nM
ADI-24803 (antibody, V domains shown, full-length IgG) VH: EVQLLESGGGLVLPGGSLRLSCAASGFTFSSYAMSWVRQAPGKGLEWVSAISGSGIYTYYADSVKGRFTISRDNSKNTLYLQMSSLRAEDTAVYYCAKGSLGMAYSAFDIWGLGTTVTVSS VL: DIQLTQSPGTLSLSSGERATLSCRASQSVSSNYLAWYQQKPGQPPRLLIYGASSRATGIPDRFSGSGSGTDFTLTISRLEPEDFAVYYCQQYGSSPLTFGGGTKVDIK: 0.442 nM

Attention now shifts to the item below.
Q: # return recorded Kd for input ADI-25576 (antibody, V domains shown, full-length IgG; also called Ab 460) VH: EVQLVESGGGLVQPGGSLRLSCAASGFTFSSYWMHWVRQAPGKGLVWVSRINSDGSSTSYADSVKGRFTISRDNAKNTLYLQMNSLRAEDTAVYYCARGLYNWNHDYWGQGTLVTVSS VL: NFMLTQPHSVSESPGKTVTISCTRSSGSIASNYVQWYQQRPGSSPTTVIYEDNQRPSGVPDRFSGSIDSSSNSASLTISGLKTEDEADYYCQSYDSSNVVFGGGTKVTVL
Ans: 23.9 nM

Values compiled from patent US20260258115A1.
